Field: kcat/Km. Provide a value for each of the proteins that follow.
- Substrate: O=C(O)c1cc(C(=O)O)oc(=O)c1
- protocol_notes: purified protein
- Assay type: biochemical, Sphingobium sp. SYK-6
- condition_summary: 50 mM BICINE pH 8.25, 30 °C
Give bare numbers, in M⁻¹ s⁻¹.

protein	kcat/Km [M⁻¹ s⁻¹]
LigI (Sphingobium sp. SYK-6; Y154F) (protein) TNDERILSWNETPSKPRYTPPPGAIDAHCHVFGPMAQFPFSPKAKYLPRDAGPDMLFALRDHLGFARNVIVQASCHGTDNAATLDAIARAQGKARGIAVVDPAIDEAELAALHEGGMRGIRFNFLKRLVDDAPKDKFLEVAGRLPAGWHVVIFFEADILEELRPFMDAIPVPIVIDHMGRPDVRQGPDGADMKAFRRLLDSREDIWFKATCPDRLDPAGPPWDDFARSVAPLVADYADRVIWGTDWPHPNMQDAIPDDGLVVDMIPRIAPTPELQHKMLVTNPMRLYWSEEM	37000

Task: I would be grateful if you could share the reported kcat/Km for LigI (Sphingobium sp. SYK-6; H31N) (protein) TNDERILSWNETPSKPRYTPPPGAIDAHCNVFGPMAQFPFSPKAKYLPRDAGPDMLFALRDHLGFARNVIVQASCHGTDNAATLDAIARAQGKARGIAVVDPAIDEAELAALHEGGMRGIRFNFLKRLVDDAPKDKFLEVAGRLPAGWHVVIYFEADILEELRPFMDAIPVPIVIDHMGRPDVRQGPDGADMKAFRRLLDSREDIWFKATCPDRLDPAGPPWDDFARSVAPLVADYADRVIWGTDWPHPNMQDAIPDDGLVVDMIPRIAPTPELQHKMLVTNPMRLYWSEEM .
Output: 41000
